All figures here come from PubChem BioAssay AID493098.

Target: C-C chemokine receptor type 6 (Homo sapiens)
Experiment: blockers of CCL20-driven beta-arrestin recruitment to CCR6 – cell-based, CHO-K1, luminescence, uHTS, primary screen (AID 493098);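 also: cells stimulated with CCL20 at 14 nM final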
Conditions: CHO-K1 CCR6 PathHunter beta-arrestin, CCL20-stimulated, at 20 µM
About 1,700 (0.5%) of roughly 340,000 compounds were called active.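 The calls were made as follows: active = compounds whose inhibition of the agonist-driven luminescence signal at 20 µM reaches about 50% (limit read from the data); inactive = the rest.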 This excerpt belongs to a sample that is enriched for actives.
Outcomes: active, inactive

INSERT INTO measurements (molecule, discrete_label) VALUES
  ('C=CCn1c(C(C)NC(=O)CC)nc2ccccc21 (stereo unspecified)', 'inactive'),
  ('CCc1ccc(N(C(=O)c2csnn2)C(C(=O)NC2CCCCC2)c2cccnc2)cc1 (stereo unspecified)', 'inactive'),
  ('O=C(N/N=C/c1cc(Cl)cc([N+](=O)[O-])c1O)C(O)(c1ccccc1)c1ccccc1', 'active'),
  ('C/C(=N\NC(=O)Cc1ccc(Cl)cc1)c1ccccn1', 'active'),
  ('COCCn1c(SCC(=O)Nc2ccccc2F)nc2c(c1=O)SCC2', 'inactive'),
  ('CCOC(=O)NC(C(F)(F)F)(C(F)(F)F)P(=O)(c1ccccc1)c1ccccc1', 'inactive'),
  ('Cc1cc(C)c(C2C3=C(Nc4c2c(C)nn4-c2ccccn2)c2ccccc2C3=O)c(C)c1 (stereo unspecified)', 'active'),
  ('O=S(=O)(Nc1cc(Cl)ccc1N1CCOCC1)c1ccccc1Cl', 'inactive'),
  ('CCn1c(=S)[nH]c2cc(S(=O)(=O)N3CCOCC3)ccc21', 'inactive'),
  ('Cc1c(O)c(C)c2c(c1O)C(=O)C[C@@H](c1ccccc1)O2', 'inactive'),
  ('CN(CCc1ccccn1)C(=O)c1ccc(OC2CCN(CCc3ccccc3)CC2)cc1', 'inactive'),
  ('COC(=O)c1cccc(N(C(=O)CNC(=O)c2cccs2)C(C(=O)NCC2CCCO2)c2ccc(OC)c(OC)c2)c1 (stereo unspecified)', 'inactive'),
  ('Cc1nn(C(C)CC(=O)O)c(C)c1C (stereo unspecified)', 'inactive'),
  ('CCN(CC)C(=O)CSc1nnc(CNc2ccc(F)cc2)n1Cc1ccco1', 'inactive'),
  ('CC(Sc1nc2c([nH]c3ccccc32)c(=O)n1C)c1ccccc1 (stereo unspecified)', 'inactive'),
  ('COC(=O)c1ccc(NC(=S)NN2CCOCC2)cc1', 'inactive'),
  ('Cc1cccc(NC(=O)c2nc(S(=O)(=O)Cc3ccccc3)ncc2Cl)c1', 'active'),
  ('O=C(c1ccc(Cl)cc1)N1N=C(c2ccccn2)CC1(O)C(F)(F)F (stereo unspecified)', 'active'),
  ('Cc1ccc(S(=O)(=O)NCc2ccc(C(=O)NC3CCC(C)CC3)cc2)cc1 (stereo unspecified)', 'inactive'),
  ('Cc1ccc(-n2ncc3c(Nc4cccc(C(=O)O)c4)ncnc32)cc1', 'inactive'),
  ('COc1ccc(C(=O)NCc2ccccc2C)cc1S(=O)(=O)NC1CCCC1', 'inactive'),
  ('CCC(=O)Nc1nc(C)c(C(=O)Nc2cccc(Cl)c2)s1', 'inactive'),
  ('CC1CN(Cc2ccco2)C(=S)N(c2ccccc2)C1=O (stereo unspecified)', 'inactive'),
  ('Cc1ccc(C)c(OCCC(=O)OCC(=O)N2CCN(c3ccccc3)CC2)c1', 'inactive'),
  ('O=C(C1CCCO1)N(Cc1ccccc1)c1ccccc1 (stereo unspecified)', 'inactive'),
  ('CN(C)/C=C(/C(=O)c1ccc(Cl)c(Cl)c1)c1nnnn1-c1ccccc1', 'inactive'),
  ('Cc1ccccc1CSCCNC(=O)c1ccc(N(C)S(=O)(=O)c2ccccc2)cc1', 'inactive'),
  ('Cc1csc(SCC(=O)N(c2ccccc2)C(C)C)n1', 'inactive'),
  ('C/C(N)=C(\C#N)C(=O)NCCc1ccccn1', 'inactive'),
  ('Nc1ccc(SCCN2C(=O)c3ccccc3C2=O)cc1', 'inactive'),
  ('CC(NC(=O)c1ccccc1)C(=O)Nc1ccccc1 (stereo unspecified)', 'inactive'),
  ('Cc1cccc(CSc2ccc(-c3cccs3)nn2)c1', 'inactive'),
  ('CCOc1ccccc1NC(=O)COc1ccc(S(=O)(=O)N2CCCC2)cc1', 'inactive'),
  ('O=C(CSc1cccc2cccnc12)N/N=C/c1cccnc1', 'active'),
  ('COc1ccc(C(C#N)(CC(=O)O)c2cnccn2)cc1OC (stereo unspecified)', 'inactive'),
  ('C=CCC(C(=O)c1ccccc1)[N+](C)(C)CC=C (stereo unspecified)', 'inactive'),
  ('O=C1C=C(NS(=O)(=O)c2ccccc2)C(=O)c2ccccc21', 'inactive'),
  ('CN(C)C(=S)N=c1ssc(=S)n1Cc1ccco1', 'active'),
  ('O=C(NC1CC1)C(Cc1ccccc1)NS(=O)(=O)c1ccccc1F (stereo unspecified)', 'inactive'),
  ('O=[N+]([O-])c1ccc(N2CCOCC2)cc1', 'inactive'),
  ('Cc1oc2c(c1C(=O)N1CCOCC1)C(=O)c1ccccc1C2=O', 'inactive'),
  ('O=[N+]([O-])c1ccc(O)c(/C=N/Nc2ccccc2[N+](=O)[O-])c1', 'active'),
  ('CC(C)N(Cc1ccccc1)C(=S)Nc1ccc(OC(F)F)cc1', 'inactive'),
  ('Cc1cc(Cl)nc(NC(=O)Nc2cccc(Cl)c2)n1', 'inactive'),
  ('CC1(C)C=Cc2c(ccc3c2OC[C@@H](c2ccc(O)cc2O)C3)O1', 'inactive'),
  ('Cc1csc(NC(=S)Nc2cccc(Cl)c2)n1', 'active');
